assayTarget: Pancreatic alpha-amylase (Sus scrofa, UniProt P00690)
Sequence (P00690 whole entry): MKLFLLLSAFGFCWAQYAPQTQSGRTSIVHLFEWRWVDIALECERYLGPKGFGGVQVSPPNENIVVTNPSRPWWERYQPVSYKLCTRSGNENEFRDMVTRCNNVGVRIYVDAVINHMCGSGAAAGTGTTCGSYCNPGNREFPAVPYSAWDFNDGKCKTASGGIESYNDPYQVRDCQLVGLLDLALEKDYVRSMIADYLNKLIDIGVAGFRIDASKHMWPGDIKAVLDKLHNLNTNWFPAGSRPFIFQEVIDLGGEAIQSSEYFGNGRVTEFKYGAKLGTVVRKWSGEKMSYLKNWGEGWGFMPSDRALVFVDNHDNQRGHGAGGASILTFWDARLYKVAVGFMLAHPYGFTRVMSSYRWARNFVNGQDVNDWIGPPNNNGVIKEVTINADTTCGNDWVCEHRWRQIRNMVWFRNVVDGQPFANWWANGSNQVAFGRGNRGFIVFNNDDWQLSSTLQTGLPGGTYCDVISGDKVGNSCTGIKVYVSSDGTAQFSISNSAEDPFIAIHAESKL
pIC50: −log10 of the molar value.
measurementType: pIC50

Recorded results for 3 molecules are shown here.
| compoundSmiles | assayTarget | pIC50 |
| --- | --- | --- |
| Cc1ccc(CN2CCN(S(=O)(=O)c3ccc([N+](=O)[O-])cc3[N+](=O)[O-])CC2)cc1 | Pancreatic alpha-amylase (Sus scrofa, UniProt P00690) | 5.53 |
| Cc1ccc(CN2CCN(S(=O)(=O)c3cc(Cl)c(Cl)cc3Cl)CC2)cc1 | Pancreatic alpha-amylase (Sus scrofa, UniProt P00690) | 5.45 |
| Cc1ccc(CN2CCN(S(=O)(=O)c3ccc(Br)cc3)CC2)cc1 | Pancreatic alpha-amylase (Sus scrofa, UniProt P00690) | 5.67 |

P: Cc1ccc(CN2CCN(S(=O)(=O)c3ccccc3Cl)CC2)cc1
Q: Cc1ccc(CN2CCN(S(=O)(=O)c3ccc(F)cc3)CC2)cc1
Q) Which shows the larger pIC50 value: P or Q ? Please identify the chosen entry by its label.
A) Q

* * *

The following molecules each carry a recorded IC50 for UniProtKB P00690.
measurementType: IC50 (nM)

| compoundSmiles | IC50 / nM |
| --- | --- |
| Cc1ccc(CN2CCN(S(=O)(=O)c3ccc(Cl)c(Cl)c3)CC2)cc1 | 2980 |
| Cc1ccc(CN2CCN(S(=O)(=O)c3ccc(C)cc3)CC2)cc1 | 2870 |
| Cc1ccc(CN2CCN(S(=O)(=O)c3cccc([N+](=O)[O-])c3)CC2)cc1 | 2750 |
| Cc1ccc(CN2CCN(S(=O)(=O)c3cc(Cl)ccc3Cl)CC2)cc1 | 2880 |
| Cc1ccc(CN2CCN(S(=O)(=O)c3ccc(Cl)cc3Cl)CC2)cc1 | 3140 |
| Cc1ccc(CN2CCN(S(=O)(=O)c3ccc(Cl)cc3)CC2)cc1 | 2350 |
